Catalogue of relative viability values
System: PC-14
test: relative viability (nuclei count vs DMSO), 5 days (fraction); higher = more cells survive
protocol.conditions: first compound 0.1265 µM
attribute.measured: relative viability

molecule	measured.value
Clc1ccc(Nc2nnc(Cc3ccncc3)c3ccccc23)cc1 [Vatalanib] + NC(=O)Nc1cc(-c2cccc(F)c2)sc1C(=O)N[C@H]1CCCNC1 [AZD7762] (partner 0.2 µM)	0.332
Clc1ccc(Nc2nnc(Cc3ccncc3)c3ccccc23)cc1 [Vatalanib] + CS(=O)(=O)N1CCN(Cc2cc3nc(-c4cccc5[nH]ncc45)nc(N4CCOCC4)c3s2)CC1 [Pictilisib] (partner 1 µM)	0.712
Clc1ccc(Nc2nnc(Cc3ccncc3)c3ccccc23)cc1 [Vatalanib] + COc1cc2c(Oc3ccc(NC(=O)C4(C(=O)Nc5ccc(F)cc5)CC4)cc3F)ccnc2cc1OCCCN1CCOCC1 [Foretinib] (partner 0.25 µM)	0.855
COc1cc(N2CCC(C(N)=O)CC2)ccc1Nc1nc(N)c(Cl)c(Nc2ccccc2S(=O)(=O)C(C)C)n1 [HG-5-88-01] + CC1(C)CCC(c2ccc(Cl)cc2)=C(CN2CCN(c3ccc(C(=O)NS(=O)(=O)c4ccc(N[C@H](CCN5CCOCC5)CSc5ccccc5)c(S(=O)(=O)C(F)(F)F)c4)cc3)CC2)C1 [Navitoclax] (partner 0.5 µM)	1.05
C[C@@H]1CN(CC(=O)Nc2ccc3c(c2)Cc2cccc(-c4cc(=O)cc(N5CCOCC5)o4)c2S3)C[C@H](C)O1 + O=C(c1cc(Cc2n[nH]c(=O)c3ccccc23)ccc1F)N1CCN(C(=O)C2CC2)CC1 [Olaparib] (partner 8 µM)	0.169
C[C@@H]1CN(CC(=O)Nc2ccc3c(c2)Cc2cccc(-c4cc(=O)cc(N5CCOCC5)o4)c2S3)C[C@H](C)O1 + CCNC(=O)c1noc(-c2cc(C(C)C)c(O)cc2O)c1-c1ccc(CN2CCOCC2)cc1 [Luminespib] (partner 0.01 µM)	0.122
C[C@@H]1CN(CC(=O)Nc2ccc3c(c2)Cc2cccc(-c4cc(=O)cc(N5CCOCC5)o4)c2S3)C[C@H](C)O1 + CS(=O)(=O)N1CCN(Cc2cc3nc(-c4cccc5[nH]ncc45)nc(N4CCOCC4)c3s2)CC1 [Pictilisib] (partner 1 µM)	0.629
COc1cc(N2CCC(C(N)=O)CC2)ccc1Nc1nc(N)c(Cl)c(Nc2ccccc2S(=O)(=O)C(C)C)n1 [HG-5-88-01] + O=C(c1cc(Cc2n[nH]c(=O)c3ccccc23)ccc1F)N1CCN(C(=O)C2CC2)CC1 [Olaparib] (partner 8 µM)	0.339
COc1cc(N2CCC(C(N)=O)CC2)ccc1Nc1nc(N)c(Cl)c(Nc2ccccc2S(=O)(=O)C(C)C)n1 [HG-5-88-01] + Cc1nc(NC(=O)N2CCC[C@H]2C(N)=O)sc1-c1ccnc(C(C)(C)C(F)(F)F)c1 [Alpelisib] (partner 2 µM)	0.849
COc1cc(N2CCC(C(N)=O)CC2)ccc1Nc1nc(N)c(Cl)c(Nc2ccccc2S(=O)(=O)C(C)C)n1 [HG-5-88-01] + CCNC(=O)c1noc(-c2cc(C(C)C)c(O)cc2O)c1-c1ccc(CN2CCOCC2)cc1 [Luminespib] (partner 0.01 µM)	0.209
C[C@@H]1CN(CC(=O)Nc2ccc3c(c2)Cc2cccc(-c4cc(=O)cc(N5CCOCC5)o4)c2S3)C[C@H](C)O1 + COc1cc2c(Oc3ccc(NC(=O)C4(C(=O)Nc5ccc(F)cc5)CC4)cc3F)ccnc2cc1OCCCN1CCOCC1 [Foretinib] (partner 0.25 µM)	0.864
Clc1ccc(Nc2nnc(Cc3ccncc3)c3ccccc23)cc1 [Vatalanib] + CC(C)C[C@H](NC(=O)[C@H](Cc1ccccc1)NC(=O)c1cnccn1)B(O)O [Bortezomib] (partner 0.002 µM)	0.849
COc1cc(N2CCC(C(N)=O)CC2)ccc1Nc1nc(N)c(Cl)c(Nc2ccccc2S(=O)(=O)C(C)C)n1 [HG-5-88-01] + Nc1ncn([C@H]2C[C@H](O)[C@@H](CO)O2)c(=O)n1 [Decitabine] (partner 2 µM)	0.231
Clc1ccc(Nc2nnc(Cc3ccncc3)c3ccccc23)cc1 [Vatalanib] + Nc1ncn([C@H]2C[C@H](O)[C@@H](CO)O2)c(=O)n1 [Decitabine] (partner 2 µM)	0.213
C[C@@H]1CN(CC(=O)Nc2ccc3c(c2)Cc2cccc(-c4cc(=O)cc(N5CCOCC5)o4)c2S3)C[C@H](C)O1 + Cc1cc(Nc2cc(N3CCN(C)CC3)nc(Sc3ccc(NC(=O)C4CC4)cc3)n2)n[nH]1 [Tozasertib] (partner 0.1 µM)	0.562
C[C@@H]1CN(CC(=O)Nc2ccc3c(c2)Cc2cccc(-c4cc(=O)cc(N5CCOCC5)o4)c2S3)C[C@H](C)O1 + CC(=O)c1c(C)c2cnc(Nc3ccc(N4CCNCC4)cn3)nc2n(C2CCCC2)c1=O [Palbociclib] (partner 0.5 µM)	0.506
C[C@@H]1CN(CC(=O)Nc2ccc3c(c2)Cc2cccc(-c4cc(=O)cc(N5CCOCC5)o4)c2S3)C[C@H](C)O1 + N=C(N)NC(=N)NCCc1ccccc1 [Phenformin] (partner 250 µM)	0.528
COc1cc(N2CCC(C(N)=O)CC2)ccc1Nc1nc(N)c(Cl)c(Nc2ccccc2S(=O)(=O)C(C)C)n1 [HG-5-88-01] + CC(=O)Nc1cccc(-n2c(=O)n(C3CC3)c(=O)c3c(Nc4ccc(I)cc4F)n(C)c(=O)c(C)c32)c1 [Trametinib] (partner 0.02 µM)	0.836

====

Tested on: NCI-H2126
test: relative viability (nuclei count vs DMSO), 5 days (fraction); higher = more cells survive
protocol.conditions: first compound 0.4 µM

compound	system.name	relative viability
C[C@@H]1CN(CC(=O)Nc2ccc3c(c2)Cc2cccc(-c4cc(=O)cc(N5CCOCC5)o4)c2S3)C[C@H](C)O1 + Cc1cc(Nc2cc(N3CCN(C)CC3)nc(Sc3ccc(NC(=O)C4CC4)cc3)n2)n[nH]1 [Tozasertib] (partner 0.1 µM)	NCI-H2126	0.793
COc1cc(N2CCC(C(N)=O)CC2)ccc1Nc1nc(N)c(Cl)c(Nc2ccccc2S(=O)(=O)C(C)C)n1 [HG-5-88-01] + Cc1nc(Nc2ncc(C(=O)Nc3c(C)cccc3Cl)s2)cc(N2CCN(CCO)CC2)n1 [Dasatinib] (partner 0.075 µM)	NCI-H2126	0.449
C[C@@H]1CN(CC(=O)Nc2ccc3c(c2)Cc2cccc(-c4cc(=O)cc(N5CCOCC5)o4)c2S3)C[C@H](C)O1 + NC(=O)Nc1cc(-c2cccc(F)c2)sc1C(=O)N[C@H]1CCCNC1 [AZD7762] (partner 0.2 µM)	NCI-H2126	0.964
C[C@@H]1CN(CC(=O)Nc2ccc3c(c2)Cc2cccc(-c4cc(=O)cc(N5CCOCC5)o4)c2S3)C[C@H](C)O1 + Nc1ncn([C@H]2C[C@H](O)[C@@H](CO)O2)c(=O)n1 [Decitabine] (partner 2 µM)	NCI-H2126	0.623
COc1cc(N2CCC(C(N)=O)CC2)ccc1Nc1nc(N)c(Cl)c(Nc2ccccc2S(=O)(=O)C(C)C)n1 [HG-5-88-01] + CC(=O)Nc1cccc(-n2c(=O)n(C3CC3)c(=O)c3c(Nc4ccc(I)cc4F)n(C)c(=O)c(C)c32)c1 [Trametinib] (partner 0.02 µM)	NCI-H2126	0.557
COc1cc(N2CCC(C(N)=O)CC2)ccc1Nc1nc(N)c(Cl)c(Nc2ccccc2S(=O)(=O)C(C)C)n1 [HG-5-88-01] + Nc1nc2[nH]cc(CCc3ccc(C(=O)N[C@@H](CCC(=O)O)C(=O)O)cc3)c2c(=O)[nH]1 [Pemetrexed] (partner 0.2 µM)	NCI-H2126	0.68
Clc1ccc(Nc2nnc(Cc3ccncc3)c3ccccc23)cc1 [Vatalanib] + C[C@@H](Oc1cc(-c2cnn(C3CCNCC3)c2)cnc1N)c1c(Cl)ccc(F)c1Cl [Crizotinib] (partner 1 µM)	NCI-H2126	1.05
Clc1ccc(Nc2nnc(Cc3ccncc3)c3ccccc23)cc1 [Vatalanib] + O=C(CCCCCCC(=O)Nc1ccccc1)NO [Vorinostat] (partner 1 µM)	NCI-H2126	0.837
C[C@@H]1CN(CC(=O)Nc2ccc3c(c2)Cc2cccc(-c4cc(=O)cc(N5CCOCC5)o4)c2S3)C[C@H](C)O1 + COc1cc2c(Oc3ccc(NC(=O)C4(C(=O)Nc5ccc(F)cc5)CC4)cc3F)ccnc2cc1OCCCN1CCOCC1 [Foretinib] (partner 0.25 µM)	NCI-H2126	1.12
COc1cc(N2CCC(C(N)=O)CC2)ccc1Nc1nc(N)c(Cl)c(Nc2ccccc2S(=O)(=O)C(C)C)n1 [HG-5-88-01] + COc1cc2c(Oc3ccc(NC(=O)C4(C(=O)Nc5ccc(F)cc5)CC4)cc3F)ccnc2cc1OCCCN1CCOCC1 [Foretinib] (partner 0.25 µM)	NCI-H2126	1.05
C[C@@H]1CN(CC(=O)Nc2ccc3c(c2)Cc2cccc(-c4cc(=O)cc(N5CCOCC5)o4)c2S3)C[C@H](C)O1 + O=C(CCCCCCC(=O)Nc1ccccc1)NO [Vorinostat] (partner 1 µM)	NCI-H2126	0.759
COc1cc(N2CCC(C(N)=O)CC2)ccc1Nc1nc(N)c(Cl)c(Nc2ccccc2S(=O)(=O)C(C)C)n1 [HG-5-88-01] + CCNC(=O)c1noc(-c2cc(C(C)C)c(O)cc2O)c1-c1ccc(CN2CCOCC2)cc1 [Luminespib] (partner 0.01 µM)	NCI-H2126	0.861
C[C@@H]1CN(CC(=O)Nc2ccc3c(c2)Cc2cccc(-c4cc(=O)cc(N5CCOCC5)o4)c2S3)C[C@H](C)O1 + CC(=O)Nc1cccc(-n2c(=O)n(C3CC3)c(=O)c3c(Nc4ccc(I)cc4F)n(C)c(=O)c(C)c32)c1 [Trametinib] (partner 0.02 µM)	NCI-H2126	0.561
C[C@@H]1CN(CC(=O)Nc2ccc3c(c2)Cc2cccc(-c4cc(=O)cc(N5CCOCC5)o4)c2S3)C[C@H](C)O1 + Cc1nc(NC(=O)N2CCC[C@H]2C(N)=O)sc1-c1ccnc(C(C)(C)C(F)(F)F)c1 [Alpelisib] (partner 2 µM)	NCI-H2126	0.738
C[C@@H]1CN(CC(=O)Nc2ccc3c(c2)Cc2cccc(-c4cc(=O)cc(N5CCOCC5)o4)c2S3)C[C@H](C)O1 + CC1(C)CCC(c2ccc(Cl)cc2)=C(CN2CCN(c3ccc(C(=O)NS(=O)(=O)c4ccc(N[C@H](CCN5CCOCC5)CSc5ccccc5)c(S(=O)(=O)C(F)(F)F)c4)cc3)CC2)C1 [Navitoclax] (partner 0.5 µM)	NCI-H2126	0.808
C[C@@H]1CN(CC(=O)Nc2ccc3c(c2)Cc2cccc(-c4cc(=O)cc(N5CCOCC5)o4)c2S3)C[C@H](C)O1 + CC(=O)c1c(C)c2cnc(Nc3ccc(N4CCNCC4)cn3)nc2n(C2CCCC2)c1=O [Palbociclib] (partner 0.5 µM)	NCI-H2126	0.348
